The entries below are paired with their reported pKd.
assayed.target: T1, recombinant human activated Factor VII (FVIIa) (human, UniProt P08709 61-212; P08709 213-466, ten glutamate residues of the Gla domain may be gamma-carboxylated)
T1 construct: chains tethered by a disulfide bond; also called Factor VIIa; rFVIIa
T1 sequence 1: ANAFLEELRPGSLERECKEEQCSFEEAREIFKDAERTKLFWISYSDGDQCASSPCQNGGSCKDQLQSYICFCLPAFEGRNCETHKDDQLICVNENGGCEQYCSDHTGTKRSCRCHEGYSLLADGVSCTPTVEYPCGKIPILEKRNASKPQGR
T1 sequence 2: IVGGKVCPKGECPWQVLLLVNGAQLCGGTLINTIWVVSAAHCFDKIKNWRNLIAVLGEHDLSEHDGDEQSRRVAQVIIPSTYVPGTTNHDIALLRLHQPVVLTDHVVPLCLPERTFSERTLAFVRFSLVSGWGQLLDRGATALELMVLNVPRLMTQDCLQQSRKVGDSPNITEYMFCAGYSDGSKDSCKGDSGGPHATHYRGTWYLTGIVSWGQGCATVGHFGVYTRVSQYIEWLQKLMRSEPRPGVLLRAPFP
test: BLI (Fortebio)
Hey, just a heads up that pKd is the negative log base 10 of the concentration in molar.

Please look at this binder and report its pKd: VH SEQ ID NO 626 / VL SEQ ID NO 422 (antibody, IgG4, V domains shown, humanized 11F2; IgG4 S228P/kappa) VH: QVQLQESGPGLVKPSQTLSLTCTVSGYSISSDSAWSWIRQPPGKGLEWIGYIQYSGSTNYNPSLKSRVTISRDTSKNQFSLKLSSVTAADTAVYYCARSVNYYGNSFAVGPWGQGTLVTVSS VL: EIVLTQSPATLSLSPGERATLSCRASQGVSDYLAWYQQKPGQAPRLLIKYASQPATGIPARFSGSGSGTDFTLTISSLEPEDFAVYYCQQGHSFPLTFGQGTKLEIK
5.62

Determine its reported pKd: VH SEQ ID NO 626 / VL SEQ ID NO 470 (antibody, IgG4, V domains shown, humanized 11F2; IgG4 S228P/kappa) VH: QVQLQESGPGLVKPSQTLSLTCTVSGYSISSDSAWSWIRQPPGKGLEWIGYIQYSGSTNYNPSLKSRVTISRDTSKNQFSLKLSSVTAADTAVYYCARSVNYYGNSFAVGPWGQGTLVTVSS VL: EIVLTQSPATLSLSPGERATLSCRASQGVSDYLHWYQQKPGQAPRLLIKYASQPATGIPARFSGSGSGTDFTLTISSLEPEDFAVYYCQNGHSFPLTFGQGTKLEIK
8.96

Supply measured pKd of VH SEQ ID NO 610 / VL SEQ ID NO 350 (antibody, IgG4, V domains shown, humanized 11F2; IgG4 S228P/kappa) VH: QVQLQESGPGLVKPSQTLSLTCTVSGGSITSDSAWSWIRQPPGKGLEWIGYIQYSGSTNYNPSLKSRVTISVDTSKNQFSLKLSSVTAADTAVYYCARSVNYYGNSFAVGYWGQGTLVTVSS VL: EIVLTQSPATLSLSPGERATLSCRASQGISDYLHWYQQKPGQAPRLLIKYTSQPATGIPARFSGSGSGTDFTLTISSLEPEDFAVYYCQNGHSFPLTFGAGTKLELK in your reply.
7.96

Give reported pKd value for VH SEQ ID NO 314 / VL SEQ ID NO 358 (antibody, IgG4, V domains shown, humanized 11F2; IgG4 S228P/kappa) VH: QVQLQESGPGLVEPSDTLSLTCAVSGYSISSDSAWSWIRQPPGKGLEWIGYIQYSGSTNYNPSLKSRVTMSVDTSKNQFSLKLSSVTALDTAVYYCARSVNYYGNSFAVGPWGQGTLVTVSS VL: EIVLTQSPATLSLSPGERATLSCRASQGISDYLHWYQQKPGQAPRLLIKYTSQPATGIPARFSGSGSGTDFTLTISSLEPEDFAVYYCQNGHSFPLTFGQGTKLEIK
7.74

Please supply the value of reported pKd for the item VH SEQ ID NO 538 / VL SEQ ID NO 478 (antibody, IgG4, V domains shown, humanized 11F2; IgG4 S228P/kappa) VH: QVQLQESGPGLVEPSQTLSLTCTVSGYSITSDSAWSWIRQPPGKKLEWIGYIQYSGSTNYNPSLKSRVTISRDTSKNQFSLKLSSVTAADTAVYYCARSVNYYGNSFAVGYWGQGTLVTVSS VL: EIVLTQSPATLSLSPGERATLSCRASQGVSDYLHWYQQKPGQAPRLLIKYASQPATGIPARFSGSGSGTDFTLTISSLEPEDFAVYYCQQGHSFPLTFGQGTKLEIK
8.74
